target: Tau peptide Start 1 Stop 20 (Synthetic linear peptide immobilised on a Pepscan array; the attachment to the array cannot be carried by the letters.); experiment: Pepscan ELISA on an array of linear 20-mer Tau 441 peptides; set-up: unit not given here
Sequence (peptide, as listed by the source limits assumed): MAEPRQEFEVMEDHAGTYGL
readout_name: peptide ELISA signal (no name or unit printed)
Please state the value as a number alone, without comment.

q: # query: peptide ELISA signal (no name or unit printed) of entry hTau60 monoclonal antibody (recombinant, mouse IgG2a/kappa) (antibody, V domains shown, also called hTau60 (PT1B469)) VH: EVQLQQSGPELVKPGTSVKISCKVFGYTFTDYYMNWVKQSHGKSLEWIGDINPDNGETTYNQKFKGKATLTVDKSSSTAYMELRSLTSEDSAVYYCAKGATFVYWGQGTLVTVSA VL: DVVMTQTPLSLPVSLGDQASISCISSQSLVHSTGTTFLHWFLQKPGQSPKLLIYKVSNRFSGVPDRFSGSGSGTDFTLKISRVEAEDLGFYFCSQSTYFPLTFGSGTKLEIKR
a: 48
